Reference for the values: patent US20240409645A1

Molecular target: T1, cynomolgus monkey IL-2Rβ/CD122 subunit (cynomolgus monkey, UniProt Q38J85 27-239, limits assumed)
T1 construct: also called Cyno IL-2R subunit
T1 sequence (looked up): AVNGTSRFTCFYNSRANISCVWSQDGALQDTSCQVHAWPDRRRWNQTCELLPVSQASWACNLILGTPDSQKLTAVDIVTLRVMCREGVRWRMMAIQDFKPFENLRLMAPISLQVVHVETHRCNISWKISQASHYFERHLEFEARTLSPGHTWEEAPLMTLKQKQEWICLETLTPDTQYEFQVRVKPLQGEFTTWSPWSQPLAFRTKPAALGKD
Assay: ELISA, bivalent VHH-hFc
pEC50: −log10 of the molar value.

# binder, pEC50
measured = [
    ("15-MP02E06 VHH-hFc, monospecific bivalent (Fc fusion, IgG1 Fc LALA-PG; also called anti-IL-2Rβ Ab 15; not shown: human IgG1 CH2 and CH3 domains (Fc)) QVQLVESGGGSVQPGGSLRLSCAASGFTFSNYAMSWVRQAPGKGLEWVASITGFGRGTDYADSVKGRFTISRDNAEDTLYLQMNSLKPEDTAVYYCAKYSSSTYYPPTPARGRDYRGQGTQVTVSS", 9.05),
    ("22-MP03F12 VHH-hFc, monospecific bivalent (Fc fusion, IgG1 Fc LALA-PG; not shown: human IgG1 CH2 and CH3 domains (Fc)) EVQLVESGGGLVQAGGSLRLSCAASGSIFSINAMAWFRQVPGMERELVAAISRDGGASVYRDSVKGRFTISRDNSKNTVYLQMNTLKPEDTAIYVCAATRAIGWTARWITTDFDFWGQGTQVTVSS", 9.91),
    ("166-MP02H08 VHH-hFc, monospecific bivalent (Fc fusion, IgG1 Fc LALA-PG; not shown: human IgG1 CH2 and CH3 domains (Fc)) EVQLVESGGGLVQAGDSLRISCAASGRIFSNYAMGWFRQAPGKETEFVAGITHLTSTTHYADSVKGRFTISRDNAKNTMHLQMNNLKPEDTALYYCAADRNIKITADWSYWGQGTQVTVAS", 9.98),
    ("161-MP02C08 VHH-hFc, monospecific bivalent (Fc fusion, IgG1 Fc LALA-PG; not shown: human IgG1 CH2 and CH3 domains (Fc)) EVQLVESGGGLVQAGGSLRLSCAASGSTFSRQPMYWFRQAPGKEREFVAAITWSGRGTLYADSVEGRFTISRDNAKNTVYLQMNSLRPDDTAAYYCAAGPYGDAAYRHGRIDSWGQGTQVTVSS", 9.80),
]
